tgt: VAV1 (Homo sapiens, UniProt P15498+Q96SW2)
Construct: A heterozygous VAV1 C-terminal HiBiT knock-in pool was generated at Monte Rosa Therapeutics from a clonal Jurkat cell; endogenous in cells; host or cells: Jurkat clone stably expressing LgBiT, homozygous GSPT1-G575N; heterozygous VAV1-HiBiT knock-in pool
experiment.notes: VAV1 degradation activity, VAV1-HiBiT knock-in Jurkat luminescence assay (Example A, Table 1)
Format: cell-based
measurement.context: VAV1-HiBiT knock-in Jurkat cells, luminescence read at 6 and 24 hours; read-out: VAV1 DC50
For each entry below, report its DC50 value.
Output spec: scalar in nM, unitless text.

Ask: Please give the measured DC50 for this molecule: COC1(CN2C(=O)Cc3cc(-c4cccc(C5CCC(=O)NC5=O)c4Cl)ccc32)CC1 (stereo not shown)
Result: 5110

Ask: Do the same for COC1CCCC(=O)N1c1ccc(-c2cccc(C3CCC(=O)NC3=O)c2Cl)cc1 (stereo not shown) please
Result: 5.24

Ask: Note, next up: CN1CC(=O)N(c2ccc(-c3cccc(C4CCC(=O)NC4=O)c3Cl)cc2)CC12CC2 (stereo not shown)
Result: 65.3

Ask: Next molecule: O=C1CCC(c2cccc(-c3ccc(N4C(=O)CCC45CCC5)nc3)c2Cl)C(=O)N1 (stereo not shown)
Result: 36.2

Ask: Could you do the same for O=C1CCC(c2cccc(-c3ccc(N4CCC4)cc3)c2Cl)C(=O)N1 (stereo not shown) , please?
Result: 552

Ask: Same again, this time with Cn1ccc(COc2ccc(-c3cccc(C4CCC(=O)NC4=O)c3F)cc2)n1 (stereo not shown)
Result: 48

Ask: Item: O=C1CCC(c2cccc(-c3ccc(N4C(=O)OCC45CC5)nc3)c2Cl)C(=O)N1 (stereo not shown)
Result: 71.4

Ask: What do we get for O=C1CCC(c2cccc(-c3ccc(Cc4ncccn4)cc3)c2Cl)C(=O)N1 (stereo not shown) ?
Result: 4.54

Ask: Next: O=C1CCC(c2cccc(-c3ccc(CC(=O)N4CCCC4)cc3)c2Cl)C(=O)N1 (stereo not shown)
Result: 3.87

Ask: // same read-out, input: O=C1CCC(c2cccc(-c3ccc(N4CCCNC4=O)cc3)c2Cl)C(=O)N1 (stereo not shown)
Result: 10

Ask: What do you have for O=C1CCC(c2cccc(-c3ccc(N4C(=O)CCC45CC5)nc3)c2Cl)C(=O)N1 (stereo not shown) ?
Result: 122

Ask: Queued: O=C1CCC(c2cccc(-c3ccc(N4C(=O)CCCC4C(F)F)cc3)c2Cl)C(=O)N1 (stereo not shown)
Result: 7.16

Ask: Query O=C1CCC(c2cccc(-c3ccc(Cn4ccccc4=O)cc3)c2Cl)C(=O)N1 (stereo not shown) next
Result: 26

Ask: Now the same for CC1CCN(Cc2ccc(-c3cccc(C4CCC(=O)NC4=O)c3Cl)cc2)C(=O)C1 (stereo not shown)
Result: 15.9

Ask: And what about the molecule O=C1CCC(c2cccc(-c3cnc(Cn4ccccc4=O)c(F)c3)c2Cl)C(=O)N1 (stereo not shown) ?
Result: 418

Ask: Quick one: Cn1ccc(-c2ccc(-c3cccc(C4CCC(=O)NC4=O)c3Cl)cc2)n1 (stereo not shown)
Result: 542

Ask: Also, O=C1CC[C@@H](c2cccc(-c3ccc(-n4ccccc4=O)cc3)c2Cl)C(=O)N1 please.
Result: 3.07

###

tgt: VAV1 (Homo sapiens, UniProt P15498+Q96SW2)
Construct: A heterozygous VAV1 C-terminal HiBiT knock-in pool was generated at Monte Rosa Therapeutics from a clonal Jurkat cell; endogenous in cells; host or cells: Jurkat clone stably expressing LgBiT, homozygous GSPT1-G575N; heterozygous VAV1-HiBiT knock-in pool
experiment.notes: VAV1 degradation activity, VAV1-HiBiT knock-in Jurkat luminescence assay (Example A, Table 1)
Type: cell-based
measurement.context: VAV1-HiBiT knock-in Jurkat cells, luminescence read at 6 and 24 hours; read-out: VAV1 DC50
measure: DC50 (nM)
# number only, unit nM dropped from output

Ask: DC50 lookup needed for O=C1CCC(c2cccc(-c3ccc(N4C(=O)OCC45CCC5)cc3)c2Cl)C(=O)N1 (stereo not drawn) [Compound 416] , thanks.
Result: 3.54

Ask: Next up: Cc1c(-c2ccc(-n3ccccc3=O)cc2)cccc1C1CCC(=O)NC1=O (stereo not drawn) [Compound 240]
Result: 77.1

Ask: Also check CC(=O)Nc1ccc(-c2cccc(C3CCC(=O)NC3=O)c2Cl)cc1 (stereo not drawn) [Compound 128]
Result: 67.4

Ask: Please answer likewise for O=C1CCC(c2cccc(-c3ccc(CN4CCCC4=O)cc3)c2Cl)C(=O)N1 (stereo not drawn) [Compound 206]
Result: 42.7

Ask: Follow-up entry: O=C1CCC(c2cccc(-c3cnc(N4C(=O)CCCC45CC5)c(F)c3)c2Cl)C(=O)N1 (stereo not drawn) [Compound 362]
Result: 69.6

Ask: Follow-up entry: CC1CCC(=O)N(c2ccc(-c3cccc(C4CCC(=O)NC4=O)c3Cl)cc2)C1 (stereo not drawn) [Compound 314]
Result: 9.68

Ask: Also, Nc1ccnn1Cc1ccc(-c2cccc(C3CCC(=O)NC3=O)c2Cl)cc1 (stereo not drawn) [Compound 118] please.
Result: 39.7

Ask: Also, O=C1CCC(c2cccc(-c3ccc(Cc4ccncn4)cc3)c2Cl)C(=O)N1 (stereo not drawn) [Compound 401] please.
Result: 15

Ask: Would you mind doing [2H]c1c([2H])c(-n2ccccc2=O)c([2H])c([2H])c1-c1cccc(C2CCC(=O)NC2=O)c1Cl (stereo not drawn) [Compound 462] as well?
Result: 14.8

Ask: Follow-up entry: Cn1ccc(Cc2ccc(-c3cccc(C4CCC(=O)NC4=O)c3Cl)cc2)n1 (stereo not drawn) [Compound 176]
Result: 4.41

Ask: Queued: C[C@H]1COCC(=O)N1c1ccc(-c2cccc(C3CCC(=O)NC3=O)c2Cl)cc1 (stereo partly drawn) [Compound 325]
Result: 6.66

Ask: And then Cc1cc(-c2cccc(C3CCC(=O)NC3=O)c2Cl)ccc1-n1ccccc1=O (stereo not drawn) [Compound 199] , what is it?
Result: 1280

Ask: Cool, now O=C1CCC(c2cccc(-c3ccc(CN4CCn5cncc5C4=O)cc3)c2Cl)C(=O)N1 (stereo not drawn) [Compound 273]
Result: 118

###

tgt: VAV1 (Homo sapiens, UniProt P15498+Q96SW2)
Construct: A heterozygous VAV1 C-terminal HiBiT knock-in pool was generated at Monte Rosa Therapeutics from a clonal Jurkat cell; endogenous in cells; host or cells: Jurkat clone stably expressing LgBiT, homozygous GSPT1-G575N; heterozygous VAV1-HiBiT knock-in pool
experiment.notes: VAV1 degradation activity, VAV1-HiBiT knock-in Jurkat luminescence assay (Example A, Table 1)
Format: cell-based
measurement.context: Jurkat, VAV1-HiBiT knock-in Jurkat cells, luminescence read at 6 and 24 hours; read-out: VAV1 Dmax %, class
measure: Dmax

Ask: Consider the compound Cc1cc(-c2cccc(C3CCC(=O)NC3=O)c2Cl)ccc1N (centres unmarked) [Compound 131] and give its measured Dmax.
Result: > 90%

Ask: Now this one: COc1ccnc(Cc2ccc(-c3cccc(C4CCC(=O)NC4=O)c3Cl)cc2)n1 (centres unmarked) [Compound 421]
Result: > 90%

Ask: And the next one, O=C1CCC(c2cccc(-c3ccc(OCc4cc[nH]n4)cc3)c2Cl)C(=O)N1 (centres unmarked) [Compound 203] ?
Result: > 90%

Ask: Next up: Cn1ncc2c1CCC(=O)N2c1ccc(-c2cccc(C3CCC(=O)NC3=O)c2Cl)cc1 (centres unmarked) [Compound 316]
Result: > 90%

Ask: Quick one: Cn1ccc(Cn2c(=O)n(C)c3cc(-c4cccc(C5CCC(=O)NC5=O)c4Cl)ccc32)n1 (centres unmarked) [Compound 363]
Result: > 90%

Ask: Now the same for O=C1CCC(c2cccc(-c3ccc(N4CCOC(F)(F)C4=O)cc3)c2Cl)C(=O)N1 (centres unmarked) [Compound 320]
Result: 60 to 90%

Ask: Then this compound: O=C1CCC(c2cccc(-c3ccc(C(=O)N4CCCCC4)cc3)c2Cl)C(=O)N1 (centres unmarked) [Compound 223]
Result: > 90%

Ask: Check O=C1CCC(c2cccc(-c3ccc(-n4ccc(F)cc4=O)cc3)c2Cl)C(=O)N1 (centres unmarked) [Compound 245] too.
Result: > 90%

Ask: How about O=C1CCC(c2cccc(-c3ccc(OCC4CCCO4)cc3)c2Cl)C(=O)N1 (centres unmarked) [Compound 119] ?
Result: 60 to 90%

Ask: Moving on to the next compound: Nc1cc(-c2cccc(C3CCC(=O)NC3=O)c2Cl)ccc1Cl (centres unmarked) [Compound 138]
Result: 60 to 90%

Ask: Now this one: Cn1ccc(COc2ccc(-c3ccc(Cl)c(C4CCC(=O)NC4=O)c3)c(Cl)c2)n1 (centres unmarked) [Compound 153]
Result: < 60%

###

tgt: VAV1 (Homo sapiens, UniProt P15498+Q96SW2)
Construct: A heterozygous VAV1 C-terminal HiBiT knock-in pool was generated at Monte Rosa Therapeutics from a clonal Jurkat cell; endogenous in cells; host or cells: Jurkat clone stably expressing LgBiT, homozygous GSPT1-G575N; heterozygous VAV1-HiBiT knock-in pool
experiment.notes: VAV1 degradation activity, VAV1-HiBiT knock-in Jurkat luminescence assay (Example A, Table 1)
Assay type: cell-based
measurement.context: VAV1-HiBiT knock-in Jurkat cells, luminescence read at 6 and 24 hours; read-out: VAV1 DC50 (nM), class
So I've got a bunch of compounds here, and I need their DC50 values.

Ask: Look up DC50 for this compound: CC1CCN(Cc2ccc(-c3cccc(C4CCC(=O)NC4=O)c3Cl)cc2)C1=O (stereo not drawn) [Compound 290]
Result: ≤ 100 nM

Ask: Moving on to COc1ccc(-c2cccc(C3CCC(=O)NC3=O)c2Cl)cc1OC(F)F (stereo not drawn) [Compound 108]
Result: > 1000 nM

Ask: What about O=C1CCC(c2cccc(-c3ccc(Cc4nccc(C5CC5)n4)cc3)c2Cl)C(=O)N1 (stereo not drawn) [Compound 344] ?
Result: ≤ 100 nM
